Target: FKBP52 (FK1 domain) (Homo sapiens)
Sequence (Q02790 50-138 limits assumed): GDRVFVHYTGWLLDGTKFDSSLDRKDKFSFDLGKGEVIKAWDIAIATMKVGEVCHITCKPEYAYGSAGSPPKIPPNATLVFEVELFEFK
Experiment: Fluorescence polarization assay, binding affinity to FKBP52 (FK1 domain)
Conditions: fluorescence polarization assay using tracer 2b; read-out: FKBP52FK1 IC50
Description: The binding affinites for FKBPs were determined as described in Kozany et al., ChemBioChem 10, 8, 2009, 1402-1410 using tracer 2b. Table 1: Chemical compounds according to formula (I) used in fluorescence polarization assay: Binding affinity to FKBP51 (FK1 domain) and FKBP52 (FK1 domain)
OBSERVATION_TYPE: IC50 (µM)

Guide cases for IC50, answers given:
COMPOUND: CCC(C)(C)C(=O)C(=O)N1CC=CC[C@H]1C(=O)O[C@H](CCc1ccc(OC)c(OC)c1)c1cccc(OCC(=O)O)c1 [Reference Example 5, reference compound]
IC50 [µM]: 49.2
//
COMPOUND: COc1ccc(CC[C@@H](OC(=O)[C@@H]2CCCCN2C(=O)C(=O)[C@@]2(O)CCCC[C@@H]2C)c2cccc(OCC(=O)O)c2)cc1OC [Compound 1b]
IC50 [µM]: 2.88

1 = COc1ccc(CC[C@@H](OC(=O)[C@@H]2CCCCN2C(=O)C(=O)C2(O)CCCCC2C)c2cccc(OCC(=O)O)c2)cc1OC (stereo in doubt) [Compound 6]
2 = CCC(C)(C)C(=O)C(=O)N1CCC[C@H]1C(=O)O[C@H](CCc1ccc(OC)c(OC)c1)c1cccc(OCC(=O)O)c1 [Reference Example 4, reference compound]
In: 1 or 2 : whose IC50 is greater? Provide the label of your selected option as the answer.
Out: 2
